# Assay details: Chromatographic hydrophobicity, logD of the compound at pH 7.4 by fast-gradient RP-HPLC method
# Format: physicochemical
# Test context: buffer
Metric: chromatographic logD
Write no unit; give the number alone.

Sample smiles: CCCCC(=O)NCCCO[C@@H]1[C@@H](C)N(C)C[C@H](C)C[C@@](C)(O)[C@H](O[C@@H]2O[C@H](C)C[C@H](N(C)C)[C@H]2O)[C@@H](C)[C@H](O[C@H]2C[C@@](C)(OC)[C@@H](O)[C@H](C)O2)[C@@H](C)C(=O)O[C@H](CC)[C@@]1(C)O
chromatographic logD: 3.74

Attention now shifts to the item below.
### Prompt Looking for the measured chromatographic logD of CCC(=O)NCCCN1C[C@H](C)C[C@@](C)(O)[C@H](O[C@@H]2O[C@H](C)C[C@H](N(C)C)[C@H]2O)[C@@H](C)[C@H](O[C@H]2C[C@@](C)(OC)[C@@H](O)[C@H](C)O2)[C@@H](C)C(=O)O[C@H](CC)[C@@](C)(O)[C@H](O)[C@H]1C , can you help?
### Response 1.86
